- Test: self-splicing fitness, log relative to wild type (ln ratio); higher = more splicing; Tetrahymena group I intron in knt gene, E. coli kanamycin selection, DiMSum; sequences stand for … in CUCUCU…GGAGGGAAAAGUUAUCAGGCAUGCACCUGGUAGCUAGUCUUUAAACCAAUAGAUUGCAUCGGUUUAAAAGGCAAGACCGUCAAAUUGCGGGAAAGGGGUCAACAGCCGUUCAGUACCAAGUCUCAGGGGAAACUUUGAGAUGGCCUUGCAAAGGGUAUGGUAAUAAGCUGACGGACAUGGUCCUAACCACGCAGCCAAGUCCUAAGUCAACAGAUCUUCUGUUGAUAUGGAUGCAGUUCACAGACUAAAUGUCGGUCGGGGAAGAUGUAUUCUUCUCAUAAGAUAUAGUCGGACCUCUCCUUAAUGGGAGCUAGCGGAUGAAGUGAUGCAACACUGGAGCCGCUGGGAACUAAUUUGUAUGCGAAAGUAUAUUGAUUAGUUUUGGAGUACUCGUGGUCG;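 further: selection with 25 µg/mL kanamycin versus none on LB agar overnight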
- Condition parameters: 30 °C
Observation type: self-splicing fitness (ln)
Field format: numeric only.

# count of solved cases: 3
{"columns": ["Biopolymer sequence", "self-splicing fitness (ln)"],
 "data": [
  ["AUGUAGCAAUAUUACGCAGC", -2.64],
  ["GGUUAGCAAUAUUACGACAA", 0.354],
  ["ACGCAGCAAUAUUACGGGGU", -4.68]
]}

Notebook: GUUCAGCAAUAUUACGCUGA , self-splicing fitness (ln) read as -2.16

----------
- Test: self-splicing fitness, log relative to wild type (ln ratio); higher = more splicing; Tetrahymena group I intron in knt gene, E. coli kanamycin selection, DiMSum; sequences stand for … in CUCUCU…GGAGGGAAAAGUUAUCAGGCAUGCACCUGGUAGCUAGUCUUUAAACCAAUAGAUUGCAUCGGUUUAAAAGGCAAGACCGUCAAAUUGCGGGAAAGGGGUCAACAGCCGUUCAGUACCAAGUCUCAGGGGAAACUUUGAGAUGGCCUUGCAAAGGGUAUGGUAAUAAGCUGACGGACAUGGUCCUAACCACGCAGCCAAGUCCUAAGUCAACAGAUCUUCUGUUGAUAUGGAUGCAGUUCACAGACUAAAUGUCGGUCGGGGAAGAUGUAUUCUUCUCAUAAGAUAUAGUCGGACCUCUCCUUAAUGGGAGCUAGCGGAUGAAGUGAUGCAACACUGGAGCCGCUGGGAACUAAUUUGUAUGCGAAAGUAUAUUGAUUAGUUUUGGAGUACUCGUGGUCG
- Condition parameters: 37 °C
Observation type: self-splicing fitness (ln)
Field format: numeric only.

{"columns": ["Biopolymer sequence", "Value observed"],
 "data": [
  ["UCUAAGCAAUAUUACGGCAA", -1.22],
  ["ACGCAGCAAUAUUACGCUAG", -2.33],
  ["UAUUAGCAAUAUUACGCAGU", -2.72],
  ["ACCAAGCAAUAUUACGUUAC", -1.76],
  ["UAAUAGCAAUAUUACGUGCU", -0.994]
]}

Notebook: UGGAAGCAAUAUUACGCGAU , self-splicing fitness (ln) read as -2.12

Notebook: AAUAAGCAAUAUUACGAUCG , self-splicing fitness (ln) read as -0.0681

----------
self-splicing fitness (ln) values by entry
- Test: self-splicing fitness, log relative to wild type (ln ratio); higher = more splicing; Tetrahymena group I intron in knt gene, E. coli kanamycin selection, DiMSum; sequences stand for … in CUCUCU…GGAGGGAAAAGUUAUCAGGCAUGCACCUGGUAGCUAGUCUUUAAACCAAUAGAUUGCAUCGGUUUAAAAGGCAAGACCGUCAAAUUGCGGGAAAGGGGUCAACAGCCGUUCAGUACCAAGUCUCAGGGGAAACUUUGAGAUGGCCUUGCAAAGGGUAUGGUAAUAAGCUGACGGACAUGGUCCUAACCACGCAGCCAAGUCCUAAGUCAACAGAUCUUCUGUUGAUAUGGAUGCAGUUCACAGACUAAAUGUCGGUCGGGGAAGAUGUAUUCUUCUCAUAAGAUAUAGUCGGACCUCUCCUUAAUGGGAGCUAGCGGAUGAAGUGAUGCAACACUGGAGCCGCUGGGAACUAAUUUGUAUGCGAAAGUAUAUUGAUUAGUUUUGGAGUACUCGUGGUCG
- Condition parameters: 37 °C
Field format: numeric only.

# count of solved cases: 5
{"columns": ["Biopolymer sequence", "Value observed"],
 "data": [
  ["ACCGAGCAAUAUUACGUAAU", -1.54],
  ["AUGUAGCAAUAUUACGCUCU", -0.655],
  ["AAUGAGCAAUAUUACGCUUU", -2.34],
  ["CGUCAGCAAUAUUACGUUGA", -2.26],
  ["AGCGAGCAAUAUUACGACGC", 0.245]
]}

Notebook: CUCGAGCAAUAUUACGUCCA , self-splicing fitness (ln) read as -3.15

Notebook: UGUGAGCAAUAUUACGUGCG , self-splicing fitness (ln) read as -1.06

Notebook: ACUCAGCAAUAUUACGCCGA , self-splicing fitness (ln) read as -2.3

Notebook: ACCUAGCAAUAUUACGACAA , self-splicing fitness (ln) read as -0.881

Notebook: GACUAGCAAUAUUACGUAUG , self-splicing fitness (ln) read as -1.33

Notebook: UUCCAGCAAUAUUACGGAGG , self-splicing fitness (ln) read as -1.03

----------
- Test: self-splicing fitness, log relative to wild type (ln ratio); higher = more splicing; Tetrahymena group I intron in knt gene, E. coli kanamycin selection, DiMSum; sequences stand for … in CUCUCU…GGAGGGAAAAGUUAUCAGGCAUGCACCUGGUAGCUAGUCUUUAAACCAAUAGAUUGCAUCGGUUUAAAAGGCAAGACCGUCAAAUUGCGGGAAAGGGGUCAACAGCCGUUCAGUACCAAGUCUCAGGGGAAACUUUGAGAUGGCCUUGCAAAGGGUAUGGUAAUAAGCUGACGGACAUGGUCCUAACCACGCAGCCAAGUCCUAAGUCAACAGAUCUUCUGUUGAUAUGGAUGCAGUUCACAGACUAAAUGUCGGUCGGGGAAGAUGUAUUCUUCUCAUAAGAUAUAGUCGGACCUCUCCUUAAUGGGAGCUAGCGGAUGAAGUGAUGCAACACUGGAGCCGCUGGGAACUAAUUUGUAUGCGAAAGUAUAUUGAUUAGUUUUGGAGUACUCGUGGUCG
- Condition parameters: 37 °C
Observation type: self-splicing fitness (ln)
Field format: numeric only.

{"columns": ["Biopolymer sequence", "Value observed"],
 "data": [
  ["CCUGAGCAAUAUUACGAGAG", -0.438],
  ["ACACAGCAAUAUUACGACAA", -0.755],
  ["CGCCAGCAAUAUUACGGACC", -0.361],
  ["CGCCAGCAAUAUUACGGGGA", -3.06],
  ["AGCAAGCAAUAUUACGAUCC", 1.31],
  ["AGGGAGCAAUAUUACGUUUC", -2.44]
]}

Notebook: AACUAGCAAUAUUACGAAGU , self-splicing fitness (ln) read as -2

Notebook: AUCUAGCAAUAUUACGCAGU , self-splicing fitness (ln) read as -2.09

Notebook: GGCGAGCAAUAUUACGGACG , self-splicing fitness (ln) read as -0.489

Notebook: GGGCAGCAAUAUUACGGGGA , self-splicing fitness (ln) read as -1.56

Notebook: AACCAGCAAUAUUACGGGCG , self-splicing fitness (ln) read as 0.356

Notebook: GCCCAGCAAUAUUACGACUA , self-splicing fitness (ln) read as -0.508

Notebook: AAUGAGCAAUAUUACGCACU , self-splicing fitness (ln) read as 0.105

Notebook: GGAAAGCAAUAUUACGCCGU , self-splicing fitness (ln) read as 0.351

Notebook: AGAUAGCAAUAUUACGGCCA , self-splicing fitness (ln) read as -0.323

Notebook: UCCUAGCAAUAUUACGUCGG , self-splicing fitness (ln) read as -0.128

Notebook: AGACAGCAAUAUUACGUGUG , self-splicing fitness (ln) read as -1.44

Notebook: CGUCAGCAAUAUUACGCGAU , self-splicing fitness (ln) read as -1.76

Notebook: CGACAGCAAUAUUACGCUCU , self-splicing fitness (ln) read as -0.145

Notebook: UGUGAGCAAUAUUACGAGUG , self-splicing fitness (ln) read as -1.16

Notebook: CUAAAGCAAUAUUACGUAUU , self-splicing fitness (ln) read as -2.17

Notebook: GUUAAGCAAUAUUACGUUUA , self-splicing fitness (ln) read as -1.61

----------
self-splicing fitness (ln) values by entry
- Test: self-splicing fitness, log relative to wild type (ln ratio); higher = more splicing; Tetrahymena group I intron in knt gene, E. coli kanamycin selection, DiMSum; sequences stand for … in CUCUCU…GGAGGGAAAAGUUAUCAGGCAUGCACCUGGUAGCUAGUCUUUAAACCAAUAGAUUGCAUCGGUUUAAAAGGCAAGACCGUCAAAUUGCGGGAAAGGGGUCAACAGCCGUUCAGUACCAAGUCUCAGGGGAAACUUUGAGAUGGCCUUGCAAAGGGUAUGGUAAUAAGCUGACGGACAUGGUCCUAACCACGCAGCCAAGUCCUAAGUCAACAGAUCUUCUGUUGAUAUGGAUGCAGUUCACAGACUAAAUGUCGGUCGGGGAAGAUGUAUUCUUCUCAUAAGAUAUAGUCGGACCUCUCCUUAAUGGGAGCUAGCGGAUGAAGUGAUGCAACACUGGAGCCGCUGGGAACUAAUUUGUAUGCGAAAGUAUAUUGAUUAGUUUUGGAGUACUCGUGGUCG
- Condition parameters: 37 °C
Field format: numeric only.

# count of solved cases: 7
{"columns": ["Biopolymer sequence", "self-splicing fitness (ln)"],
 "data": [
  ["AACGAGCAAUAUUACGUGAA", -3.65],
  ["AGUCAGCAAUAUUACGUACU", -0.881],
  ["CCGCAGCAAUAUUACGUCCU", -1.39],
  ["UUAGAGCAAUAUUACGCAAA", -0.682],
  ["AGUUAGCAAUAUUACGAUUU", 0.175],
  ["ACCCAGCAAUAUUACGCCGU", -0.415],
  ["CCCGAGCAAUAUUACGGGGA", -2.14]
]}

# ---- query sequence ----
Notebook: AAUCAGCAAUAUUACGUUAC , self-splicing fitness (ln) read as -1.08
